// data source = PubChem BioAssay (NCATS)

Assay: Counterscreen for APE1 Inhibitors: Fluorescent Dye Displacement Validation Assay (AID 1707)
Conditions: fluorescent dye displacement from DNA; series mostly up to 57.1 µM
Inconclusive results are not listed. Active and inactive are the calls of the source. The call rests on the fitted dose curve; in most records, active means well fitted inhibition curve with a large enough effect; inconclusive means small, poorly fitted or top-dose-only effect; inactive means no such curve, though single readings can be large or run the other way.

Molecule	outcome
NC(N)=N[C@@H](CCC(=O)O)C(=O)O	inactive
N#C/C(=C\c1ccc(O)c(O)c1)C(=O)NCCc1ccccc1	inactive
C=CCN1CCc2cc(O)c(O)cc2C(c2ccccc2)C1 (configuration not stated)	inactive
C=C(C)C1CC=C(C(=O)O)CC1 (configuration not stated)	inactive
COc1ccc2c(c1)CCC1C2CC[C@@]2(C)C1CC[C@@H]2NCCCCCCN1C(=O)C=CC1=O (some centres not stated)	inactive
Clc1nccc2c1ccc1ccccc12	inactive
N[C@@H](Cc1c[nH]c2ccccc12)C(=O)O	inactive
CN1CCC2(CCN3CCc4c(oc5ccccc45)C3C2)N(C)C1=O (configuration not stated)	inactive
NC1(C(=O)O)CC1	inactive
[N-]=[N+]=Nc1ccc(C(=O)CSC[C@H](NC(=O)CC[C@H](N)C(=O)O)C(=O)NCC(=O)O)cc1	inactive
Cn1cc(C(=O)OCC2CCN(CCNS(C)(=O)=O)CC2)c2ccccc21	inactive
NC1CCN(O)C1=O (configuration not stated)	inactive

* * *

Molecular target: Voltage-gated inwardly rectifying potassium channel KCNH2 (Homo sapiens)
Assay: qHTS Assay for Small Molecule Inhibitors of the Human hERG Channel Activity (AID 588834);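 further: lower thallium flux fluorescence means stronger hERG block; nearly all actives have a fitted effect of over 50% in size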
Settings: U2OS BacMam hERG, FluxOR thallium flux fluorescence; series mostly up to 46.1 µM
Inconclusive results are not listed. Calls of active or inactive are those of the source. The call rests on the fitted dose curve; in most records, active means well fitted inhibition curve with a large enough effect; inconclusive means small, poorly fitted or top-dose-only effect; inactive means flat fitted curve, though single readings scatter.
Classes used: active, inactive

Molecule	Label Class
Oc1cc(O)c2c(c1)O[C@H](c1ccc(O)c(O)c1)[C@@H](O)C2	inactive
CCCC[C@@]1(C2CCCC2)Cc2cc(OCC(=O)O)c(Cl)c(Cl)c2C1=O	inactive
COc1cccc(OC)c1OCCNCC1CSc2ccccc2O1 (stereo unspecified)	active
O=C(O)Cc1c[nH]c2ccc(O)cc12	inactive
COc1cc(CC(=O)O)ccc1O	inactive
COC(=O)C(C)(N)Cc1ccc(O)cc1 (stereo unspecified)	inactive
N=C(N)SCCc1cnc[nH]1	inactive
Cc1cc2c(cc1Cl)N(C(=O)Nc1ccnc3ccccc13)CC2	inactive
C=C1C(=O)O[C@@H]2[C@H]3O[C@]3(C)CCC=C(C)CC[C@@H]12	inactive
O=c1[nH]c(=O)c2nc3ccccc3nc2[nH]1	inactive
NC(=O)c1cc[n+](CC2=C(C(=O)O)N3C(=O)[C@@H](NC(=O)[C@@H](c4ccccc4)S(=O)(=O)[O-])[C@H]3SC2)cc1	inactive

* * *

Target: Metallo-beta-lactamase type 2 (Klebsiella pneumoniae)
Experiment: qHTS to identify inhibitors of the New Delhi Metallo-beta-lactamase (NDM): assay validation screen against the NCATS LOPAC Collection (AID 1794843);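 further: nitrocefin turnover by NDM-1 measured as 485 nm absorbance at plateau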
Conditions: NDM-1 enzyme, nitrocefin hydrolysis, absorbance 485 nm; series mostly up to 38.4 µM
Results filed as inconclusive are left out. Active and inactive are the calls of the source. Calls come from the whole dose curve; as a rule, active = well fitted curve in the direction sought with a large enough effect; inconclusive = small, poorly fitted or top-dose-only effect, or another doubt; inactive = no such curve, though single readings can be large or run the other way.
Endpoint Label: outcome

Molecule	Observed Result
COc1ccc2c(c1)CCC1C2CC[C@@]2(C)C1CC[C@@H]2NCCCCCCN1C(=O)C=CC1=O (stereo partly specified)	inactive
CC1C(=O)N(C)C(=O)c2nc[nH]c21 (stereo unspecified)	inactive
COC(=O)C1=C(C)NC(C)=C([N+](=O)[O-])C1c1ccccc1C(F)(F)F (stereo unspecified)	inactive
CCCCCCCCCCC/C=C\C(C)(C)/C=C\CCCC(=O)O	inactive
CC1=C(C(=O)O)N2C(=O)[C@@H](NC(=O)C(N)C3=CCC=CC3)[C@H]2SC1 (stereo partly specified)	inactive
CCCOC(=O)c1c(-c2ccccc2)nc(CC)c(C(=O)SCC)c1CCC	inactive
Nc1ccc(N2C(=O)c3ccccc3C2=O)c(Cl)c1	inactive
O=c1onc2cnc3ccccc3n12	inactive
CN(CC[C@@H](Oc1ccc(C(F)(F)F)cc1)c1ccccc1)CC(=O)O	inactive
CCCN(CCc1ccccc1)C1CCc2c(O)cccc2C1 (stereo unspecified)	inactive
NC(=O)CNCCC(c1ccccc1)c1ccccc1	inactive
N=C(N)SCCc1cnc[nH]1	inactive
O=[N+]([O-])c1cccc2c(Br)[nH]nc12	inactive
N=C(N)c1ccccc1	inactive
O=C(OCCN1CCOCC1)C1(c2ccccc2)CCCCC1	inactive
CCCCS(=N)(=O)CC[C@H](N)C(=O)O (stereo partly specified)	inactive
COc1cc(CC(=O)O)ccc1O	inactive
O=C(O)c1ccccc1Nc1ccccc1	inactive
c1ccc2nc(C3=NCCN3)ccc2c1	inactive
Nc1ncnc2c1nc(Sc1ccc(Cl)cc1)n2[C@H]1OC2COP(=O)(O)O[C@@H]2C1O (stereo partly specified)	inactive
CC(N)=NCCCC[C@@H](N)C(=O)O	inactive
COC(=O)C(N)Cc1ccc(Cl)cc1 (stereo unspecified)	inactive
OCC1NCC(O)C(O)C1O (stereo unspecified)	inactive
Nc1ccc(-c2nc3ccc(-c4nc5ccc(N)cc5[nH]4)cc3[nH]2)cc1	inactive
Oc1ccc(Cn2cc[nH]c2=S)cc1	inactive
CSC(=N)N	inactive
